Test system: HepG2-CANX-COX4
protocol.summary: phenotypically active (imaging signature differs from DMSO and reproducible) at any of 0.3-9 uM (binary (1 = active, 0 = inactive)); higher = active
stated.conditions: treatment time: 24 h
Each item that follows carries a reported phenotypically active.

Here is how some compounds turned out for phenotypically active.
[
  {
    "compound": "O=C(NCC1CCCCN1)c1cc(OCC(F)(F)F)ccc1OCC(F)(F)F (stereo not drawn) [flecainide]",
    "value.kind": "phenotypically active",
    "test.result": "0 (inactive)"
  },
  {
    "compound": "COc1ccc(CCN(C)CCCN2CCc3cc(OC)c(OC)cc3CC2=O)cc1OC [zatebradine]",
    "value.kind": "phenotypically active",
    "test.result": "0 (inactive)"
  }
]

// next entry
In one line, give reported phenotypically active of the entry CC[C@H](Nc1ncnc2[nH]cnc12)c1nc2cccc(F)c2c(=O)n1-c1ccccc1 [idelalisib] .
0 (inactive)

* * *

Tested on: HepG2-GM130-SQSTM1
protocol.summary: phenotypically active (imaging signature differs from DMSO and reproducible) at any of 0.3-9 uM (binary (1 = active, 0 = inactive)); higher = active
stated.conditions: treatment time: 24 h
value.kind: phenotypically active
The response must contain the number and no unit.

Consider the reported phenotypically active for these compounds:
[
  {
    "compound": "COc1c2occc2cc2ccc(=O)oc12",
    "phenotypically active": 0
  },
  {
    "compound": "CN1c2ccc([N+](=O)[O-])cc2N=C(c2ccc(C(=O)O)cc2)c2cc3c(cc21)C(C)(C)CCC3(C)C",
    "phenotypically active": 0
  },
  {
    "compound": "NC(=O)N1c2ccccc2C=Cc2ccccc21 [carbamazepine]",
    "phenotypically active": 0
  },
  {
    "compound": "CCOC(=O)[C@H](CCc1ccccc1)N[C@H]1CCc2ccccc2N(CC(=O)O)C1=O",
    "phenotypically active": 0
  },
  {
    "compound": "COc1cc2nccc(Oc3ccc(NC(=O)C4(C(=O)Nc5ccc(F)cc5)CC4)cc3)c2cc1OC",
    "phenotypically active": 0
  },
  {
    "compound": "CN(C)C1CCN(C(=O)c2ccc(NC(=O)Nc3ccc(-c4nc(N5CCOCC5)nc(N5CCOCC5)n4)cc3)cc2)CC1",
    "phenotypically active": 1
  },
  {
    "compound": "C=C1CN(Cc2ccc(C(=O)Nc3ccccc3N)cc2)C(=O)c2ccccc21",
    "phenotypically active": 1
  },
  {
    "compound": "CCCCc1oc2ccccc2c1C(=O)c1cc(I)c(OCCN(CC)CC)c(I)c1",
    "phenotypically active": 1
  }
]

# return recorded phenotypically active for entry `N=C(N)NN=Cc1c(Cl)cccc1Cl`
0

Identify phenotypically active associated with the compound `CN(C)CCC[C@@]1(c2ccc(F)cc2)OCc2cc(C#N)ccc21`
0

Give phenotypically active for the following compound: CNCC(O)c1ccc(OC(=O)C(C)(C)C)c(OC(=O)C(C)(C)C)c1 (stereo not drawn)
0

Consider the compound NS(=O)(=O)c1cc2c(cc1Cl)N=CNS2(=O)=O [chlorothiazide] . State its measured phenotypically active.
0

Could you please provide reported phenotypically active for `Nc1nc2ccc(OC(F)(F)F)cc2s1` ? Thanks!
0

Please list phenotypically active recorded for the compound `Cc1n[nH]c2ccc(-c3cncc(OC[C@@H](N)Cc4ccccc4)c3)cc12`
1

Respond only with phenotypically active recorded for OC(CCN1CCCCC1)(c1ccccc1)C1CCCCC1 (stereo not drawn)
0

Give recorded phenotypically active. `CCOC(=O)CCNc1cc(N2CCc3ccccc3CC2)nc(-c2cccnc2)n1`
0

Quickly give me recorded phenotypically active for CSc1ccc2c(c1)N(CCC1CCCCN1C)c1ccccc1S2 (stereo not drawn)
1

Quote phenotypically active reported for `OCC(CO)N[C@H]1C[C@](O)(CO)[C@@H](O)[C@H](O)[C@H]1O` please.
0
